- System: KM12 colon
- assay_protocol: NCI-60 one-dose screen, 48 h (100 = growth as untreated, 0 = no growth, -100 = all killed)
- study_conditions: 10 µM unless noted
About 83,000 compounds went through this panel and 20% of them were active in at least one assay; those are over-represented in the sample as a whole.
outcome_measure: growth (%)
Quick note: give the figure in %, leave out the unit.

Recorded results for 3 compounds are shown here.
compound: O=Cc1c(OCc2cnnn2CC(=O)Nc2ccc(Cl)cc2)ccc2ccccc12
reading_unit: %
growth: 101

compound: O=C(O)c1cn(C2CC2)c2cc(N3CCN(C(=O)C[n+]4ccccc4)CC3)c(F)cc2c1=O
reading_unit: %
growth: 103

compound: COc1cc(C=C2C(=O)N(C)C(=O)N(C)C2=O)cc(CN2CCCCC2)c1O
reading_unit: %
growth: 103

### Prompt Annotate the compound `CCOC(=O)C1=CN(C)C=C(C(=O)OCC)C1c1cc(Br)c(OCC)c(OC)c1` with its measured growth.
### Response 48.4

### Prompt Annotate the compound `O=c1nc2sc3nc4ccccc4cc3cc-2s1` with its measured growth.
### Response 129

### Prompt Annotate the compound `O=C(Nc1ccc(F)cc1F)c1cc(Cl)ccc1O` with its measured growth.
### Response 5.33
